Where these numbers come from: paper PMC12575728

- ASSAY_EXPLANATION: Pharmacokinetic studies in mice (IP and IV)
- Format: in vivo
- CONDITION_INFO: male, C57BL/6 J, mouse, plasma, 10 mg/kg IV
RESULT_TYPE: half-life
Include the unit right after the number.

>  <MOLECULE>
O=C(Nc1ccc(C(OCO[C@@H]2O[C@H](CO)[C@H](O)[C@H](O)[C@H]2O)(C(F)(F)F)C(F)(F)F)cc1)c1ccc(C(F)(F)F)cc1

>  <half-life>
2.49 h

$$$$

Moving on to the next molecule.
Task: Tell me the measured half-life of O=C(Nc1ccc(C(O)(C(F)(F)F)C(F)(F)F)cc1)c1ccc(C(F)(F)F)cc1 [SR1078, reference compound] , please.
Output: 0.98 h

###

As shown below, each of these compounds has a reported AUC value.
- ASSAY_EXPLANATION: Pharmacokinetic studies in mice (IP and IV)
- Format: in vivo
- CONDITION_INFO: male, C57BL/6 J, mouse, plasma, 10 mg/kg IP
A number alone suffices; assume ng·h/mL.

>  <COMPOUND>
O=C(Nc1ccc(C(OCO[C@@H]2O[C@H](CO)[C@H](O)[C@H](O)[C@H]2O)(C(F)(F)F)C(F)(F)F)cc1)c1ccc(C(F)(F)F)cc1

>  <UNIT_TEXT>
ng·h/mL

>  <AUC>
6080

$$$$

Task: Quick check: AUC of O=C(Nc1ccc(C(O)(C(F)(F)F)C(F)(F)F)cc1)c1ccc(C(F)(F)F)cc1 [SR1078, reference compound] ?
Output: 1910
